B1: Homeobox expressed in ES cells 1, residues 110 to 165; numbered along this chain, Q9UBX0 (parent)
chain: RPRTAFTQNQIEVLENVFRVNCYPGIDIREDLAQKLNLEEDRIQIWFQNRRAKLKR

Variants of: B1
Test: abundance fitness (aPCA) (normalised: wild type 0, dead -1); higher = more abundant; growth selection in yeast, the domain comes from the species named
Settings: Homo sapiens
MEASURE NAME: abundance fitness
// keep it numeric: no unit symbol after the value

Examples with their reported abundance fitness follow.
**Q:** Need abundance fitness of `D31M` , thanks.
**A:** -0.32

**Q:** Would you mind doing `I26E` as well?
**A:** -0.19

**Q:** Would you mind doing `F18M` as well?
**A:** -1.06

**Q:** Would you mind doing `A33C` as well?
**A:** -0.186

**Q:** Would you mind doing `N16D` as well?
**A:** -0.073

---
**Q:** Need abundance fitness of `E12I` , thanks.
**A:** -0.612

**Q:** Would you mind doing `Q34S` as well?
**A:** -0.197

**Q:** Would you mind doing `Q10L` as well?
**A:** -0.744
